K. pneumoniae SI-117 producing VIM-1 MIC data

Consider the following illustrative entries.
Req: Would you mind telling me what MIC value was observed for CCN1CCN(C(=O)NC(C(=O)N[C@H]2Cc3cccc(C(=O)O)c3OB2O)c2cccc(CNS(N)(=O)=O)c2)C(=O)C1=O (stereo partly drawn) ?
Resp: > 128 µg/mL

Req: Let us now turn to NCCN1CCN(C(=O)N[C@H](C(=O)N[C@H]2Cc3cccc(C(=O)O)c3OB2O)c2ccc(O)c(Cl)c2F)C(=O)C1=O (single isomer, unassigned)
Resp: > 128 µg/mL

Req: Let us now turn to NCCN1CCN(C(=O)N[C@@H](C(=O)N[C@H]2Cc3cccc(C(=O)O)c3OB2O)c2cccc(NS(N)(=O)=O)c2)C(=O)C1=O (single isomer, unassigned)
Resp: 32 to 64 µg/mL

Req: Let us now turn to NCCCN1CCN(C(=O)N[C@H](C(=O)N[C@H]2Cc3cccc(C(=O)O)c3OB2O)c2ccc(O)c(F)c2F)C(=O)C1=O (single isomer, unassigned)
Resp: 8 to 16 µg/mL

Req: Let us now turn to C[C@H]1CN(CCF)C(=O)C(=O)N1C(=O)NC(C(=O)N[C@H]1Cc2cccc(C(=O)O)c2OB1O)c1cc(F)c(O)c(F)c1F (stereo partly drawn)
Resp: 0.5 to 1 µg/mL

***
Req: Would you mind telling me what MIC value was observed for NS(=O)(=O)Nc1cccc(C(NC(=O)N2CCN(CCF)C(=O)C2=O)C(=O)N[C@H]2Cc3cccc(C(=O)O)c3OB2O)c1 (stereo partly drawn) ?
Resp: 32 to 64 µg/mL
